Biological target: Luciferin 4-monooxygenase (Photinus pyralis)
Test: firefly luciferase enzyme inhibitors, primary screen, biochemical, luminescence, purified enzyme, 2006 set (AID 1141);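 further: cell-free assay with purified firefly luciferase at 100 ng per well in PBS; test concentration not given here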
Conditions: SteadyGlo luminescence, 30 min, higher = more signal, called active from +8 up or from −8 down
reported-metric: z-score
Reply briefly: the number, and no unit.

[
  {
    "compound": "CN(C)CCCCCCNC(=O)[C@@H]1C[C@@H]2C(=O)N[C@@H](Cc3ccccc3)C(=O)N2[C@@H]1c1ccc(O)cc1",
    "test-target": "Luciferin 4-monooxygenase (Photinus pyralis)",
    "z-score": 0.205
  },
  {
    "compound": "CCCCCCc1nc(-c2cc(C)c(OC)c(C)c2)cc2c1[Si](C(C)C)(C(C)C)OC2",
    "test-target": "Luciferin 4-monooxygenase (Photinus pyralis)",
    "z-score": 1
  },
  {
    "compound": "Cc1ccc(S[C@]2(C(=O)NCCCN(C)C)CC(=O)N(Cc3cc(C(F)(F)F)cc(C(F)(F)F)c3)[C@@H]2c2ccc(CO)cc2I)cc1",
    "test-target": "Luciferin 4-monooxygenase (Photinus pyralis)",
    "z-score": 0.828
  },
  {
    "compound": "CCCCCN1CC=CC23O[C@@H]4C=CCCOC(=O)C4[C@H]2C(=O)N(CCCCCO)[C@@H]3C1=O (stereo partly drawn)",
    "test-target": "Luciferin 4-monooxygenase (Photinus pyralis)",
    "z-score": 0.0192
  },
  {
    "compound": "C=C[C@H](OC)[C@@H](OC(=O)Nc1ccc(OC)cc1)c1ccc(O)c(F)c1",
    "test-target": "Luciferin 4-monooxygenase (Photinus pyralis)",
    "z-score": -6.53
  }
]

Quick note, z-score for C[N+](C)(C)CCCCNC(=O)[C@@H]1C[C@@H]2C(=O)N[C@@H](Cc3ccccc3)C(=O)N2[C@@H]1c1cccc(OCCO)c1 landed at -1.75

Quick note, z-score for CCCC#C[Si](O[C@H](CC)c1cn(Cc2cccc(Cl)c2)nn1)(C(C)C)C(C)C landed at -0.786

Quick note, z-score for COc1ccc(/C=C/C=O)cc1 landed at -0.756
